In this section we review reported NADPH fluorescence slope values for a set of molecules.
# tgt: Voltage-gated potassium channel subunit beta-2 (Rattus norvegicus) (UniProt P62483)
# Sequence (P62483 whole entry, looked up): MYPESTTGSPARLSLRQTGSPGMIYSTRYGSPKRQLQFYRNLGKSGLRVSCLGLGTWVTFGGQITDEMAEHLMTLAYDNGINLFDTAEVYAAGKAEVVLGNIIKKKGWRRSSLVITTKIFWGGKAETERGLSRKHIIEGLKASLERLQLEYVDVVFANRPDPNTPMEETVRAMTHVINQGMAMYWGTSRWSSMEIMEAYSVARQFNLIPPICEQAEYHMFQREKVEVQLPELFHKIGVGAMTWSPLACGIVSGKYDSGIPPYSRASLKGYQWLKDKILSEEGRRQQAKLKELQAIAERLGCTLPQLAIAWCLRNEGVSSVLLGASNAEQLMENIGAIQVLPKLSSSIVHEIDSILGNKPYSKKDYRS
# measurement-notes: enhancers of rat Kvbeta2 NADPH turnover – biochemical, NADPH fluorescence, primary screen (AID 623);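 note: fluorescence intensity change per second fitted from 20 to 320 s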
# details: Recombinant KvBeta, NADPH fluorescence decrease slope, 10 min; at 10 µM; active compounds read low
Number only, no unit.

Please review the entries below; each comes with its answer.
INSERT INTO results (molecule, tgt, readout, recorded_measurement) VALUES
  ('CCOC(=O)c1cc2c(=O)n3ccccc3nc2n(CCCOC)c1=NC(=O)C(C)(C)C', 'Voltage-gated potassium channel subunit beta-2 (Rattus norvegicus) (UniProt P62483)', 'NADPH fluorescence slope', '7.9e-06'),
  ('COc1cccc(-n2nnnc2SCC(=O)NCc2ccco2)c1', 'Voltage-gated potassium channel subunit beta-2 (Rattus norvegicus) (UniProt P62483)', 'NADPH fluorescence slope', '-2.6e-05'),
  ('COc1ccccc1C(=O)NC(C)C(c1cccs1)N1CCN(C)CC1 (stereo unspecified)', 'Voltage-gated potassium channel subunit beta-2 (Rattus norvegicus) (UniProt P62483)', 'NADPH fluorescence slope', '1.2e-06'),
  ('Cc1cc(C)c(NC(=O)CSc2nc3c(c(=O)n2C)SC(C)C3)c(C)c1 (stereo unspecified)', 'Voltage-gated potassium channel subunit beta-2 (Rattus norvegicus) (UniProt P62483)', 'NADPH fluorescence slope', '-3.2e-05'),
  ('O=C(c1ccco1)c1nnn(Cc2ccccc2)c1-c1ccccc1', 'Voltage-gated potassium channel subunit beta-2 (Rattus norvegicus) (UniProt P62483)', 'NADPH fluorescence slope', '7.1e-06'),
  ('COc1ccc(-n2c(=O)cc(N3CCN(Cc4ccccc4)CC3)[nH]c2=O)cc1', 'Voltage-gated potassium channel subunit beta-2 (Rattus norvegicus) (UniProt P62483)', 'NADPH fluorescence slope', '1.9e-05');

QUERY: Form field: reported NADPH fluorescence slope of CC(=O)c1cc(C#N)c(SCC(=O)OC(C)C)nc1C
RESULT: -2.7e-05

QUERY: Item under review: Cc1csc(NC(=O)Nc2cccc(Cl)c2)n1 . Reported NADPH fluorescence slope?
RESULT: -3.7e-05
